assay type: in vivo, human; details: human, plasma, po, 400 mg
REPORTED_ENDPOINT: Cmax

[[record]]
sample_smiles = "FC(F)(F)c1ccc(CNc2ccc(Cc3c[nH]c4ncc(Cl)cc34)cn2)cn1"
result = "4.66 µg/mL"


---

type: in vivo, human; conditions: human, plasma, po, 200 mg
REPORTED_ENDPOINT: Cmax (ng/mL)

[[record]]
molecule = "FC(F)(F)c1ccc(CNc2ccc(Cc3c[nH]c4ncc(Cl)cc34)cn2)cn1 [Pexidartinib]"
unit_descriptor = "ng/mL"
measured_number = 2490


Reference source: paper PMC10099993
